molecular target: Fatty-acid amide hydrolase 1 (Homo sapiens, UniProt O00519); assay: Inhibition of FAAH at pH 9
Sequence (O00519 whole entry): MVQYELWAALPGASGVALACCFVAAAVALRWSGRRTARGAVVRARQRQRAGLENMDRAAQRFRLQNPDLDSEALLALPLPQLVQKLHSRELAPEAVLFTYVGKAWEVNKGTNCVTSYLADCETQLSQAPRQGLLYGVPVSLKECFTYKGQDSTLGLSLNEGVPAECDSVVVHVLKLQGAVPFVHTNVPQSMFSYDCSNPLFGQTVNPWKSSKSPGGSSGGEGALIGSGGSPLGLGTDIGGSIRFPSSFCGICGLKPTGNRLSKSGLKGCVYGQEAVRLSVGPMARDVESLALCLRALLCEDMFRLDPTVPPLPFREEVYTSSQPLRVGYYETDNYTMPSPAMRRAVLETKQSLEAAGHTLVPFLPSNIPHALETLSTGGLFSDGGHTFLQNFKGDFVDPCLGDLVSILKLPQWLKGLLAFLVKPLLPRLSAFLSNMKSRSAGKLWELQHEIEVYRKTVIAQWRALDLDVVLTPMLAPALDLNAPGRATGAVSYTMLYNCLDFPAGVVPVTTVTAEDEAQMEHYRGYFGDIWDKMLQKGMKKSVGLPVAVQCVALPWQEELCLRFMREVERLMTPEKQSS
recorded-metric: Ki (nM)

{"smiles-input": "O=C(CCCCCCc1ccccc1)c1nnc(-c2ccccn2)o1", "measure-unit": "nM", "test-value": 0.29}
{"smiles-input": "O=C(O)c1cccc(-c2cnc(C(=O)CCc3ccc(-c4ccccc4)cc3)o2)n1", "measure-unit": "nM", "test-value": 22}
{"smiles-input": "O=C(CCCCCCc1ccccc1)c1ncc(-c2cccc(-c3nnn[nH]3)n2)o1", "measure-unit": "nM", "test-value": 40}

I: O=C(O)c1cccc(-c2nnc(C(=O)CCCCCCc3ccccc3)o2)n1
II: O=C(O)c1cccc(-c2cnc(C(=O)CCc3ccc(-c4ccc(CN5CCSCC5)cc4)cc3)o2)n1
Qu. Quick one: lower Ki, I or II ? Record your answer as the label of the chosen record.
Ans. I

====

target: Fatty-acid amide hydrolase 1 (Homo sapiens) (UniProt O00519)
Sequence (O00519 whole entry): as above
recorded-metric: Tm (°C)

{"smiles-input": "O=C(O)c1cccc(-c2nnc(C(=O)CCCCCCc3ccccc3)o2)n1", "measure-unit": "°C", "Tm": 64.3}
{"smiles-input": "O=C(CCc1ccc(-c2ccccc2)cc1)c1ncc(-c2ccccn2)o1", "measure-unit": "°C", "Tm": 59.9}
{"smiles-input": "O=C(O)c1cccc(-c2cnc(C(=O)CCc3ccc(-c4ccc(CN5CCSCC5)cc4)cc3)o2)n1", "measure-unit": "°C", "Tm": 65.3}
{"smiles-input": "O=C(CCCCCCc1ccccc1)c1ncc(-c2ccccn2)o1", "measure-unit": "°C", "Tm": 58.5}
{"smiles-input": "NC(=O)c1cccc(-c2cnc(C(=O)CCCCCCc3ccccc3)o2)n1", "measure-unit": "°C", "Tm": 55}
{"smiles-input": "O=C(CCCCCCc1ccccc1)c1ncc(-c2cccc(-c3nnn[nH]3)n2)o1", "measure-unit": "°C", "Tm": 54.7}
{"smiles-input": "COC(=O)c1cccc(-c2cnc(C(=O)CCCCCCc3ccccc3)o2)n1", "measure-unit": "°C", "Tm": 53.4}
{"smiles-input": "O=C(CCCCCCc1ccccc1)c1nnc(-c2ccccn2)o1", "measure-unit": "°C", "Tm": 60.6}
{"smiles-input": "O=C(CCCCCCc1ccccc1)c1ncc(-c2ccccc2)o1", "measure-unit": "°C", "Tm": 47.2}
